Target: V2 Recepter (rat kidney plasma membrane preparations) (Rattus norvegicus, UniProt Q00788)
Construct: rat kidney plasma membrane preparations
Sequence (Q00788 whole entry): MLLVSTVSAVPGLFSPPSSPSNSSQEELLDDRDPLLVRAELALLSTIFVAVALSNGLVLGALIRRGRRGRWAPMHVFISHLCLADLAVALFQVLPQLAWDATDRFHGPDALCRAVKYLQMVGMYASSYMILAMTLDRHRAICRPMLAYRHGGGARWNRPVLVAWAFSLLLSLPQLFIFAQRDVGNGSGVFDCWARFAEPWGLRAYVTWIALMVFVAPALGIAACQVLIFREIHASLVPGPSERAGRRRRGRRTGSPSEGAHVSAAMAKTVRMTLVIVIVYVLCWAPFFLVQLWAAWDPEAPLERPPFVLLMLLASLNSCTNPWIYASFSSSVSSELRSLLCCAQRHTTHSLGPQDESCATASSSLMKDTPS
Assay: V2 Recepter binding assay
Details: [3H]-Arg-vasopressin 4×10^-10 M, 4° C., pH 8.0, rat kidney plasma membrane
readout: pIC50
Scale: pIC50 equals -log10([C]), with [C] in mol/L.

Item CCN(CCN(C)C)C(=O)COC1CCCN(C(=O)c2ccc(NC(=O)c3ccccc3Br)c(OC)c2)c2ccc(Cl)cc21 (stereo not shown) has what recorded pIC50?
8.37

Okay, and COc1cc(C(=O)N2CCCC(OCC(=O)NCCN3CCCCC3)c3cc(Cl)ccc32)ccc1NC(=O)c1ccccc1Br (stereo not shown) ?
8.07

Now consider COc1cc(NC(=O)c2ccccc2Cl)ccc1C(=O)N1CCCC(OCC[S+]([O-])c2ncc[nH]2)c2cc(Cl)ccc21 (stereo not shown) .
8.00

And the next one, COc1cc(NC(=O)c2ccccc2Cl)ccc1C(=O)N1CCCC(CC(=O)Nc2ccccc2Cl)c2cc(Cl)ccc21 (stereo not shown) ?
7.85
